Every entry's value here was drawn from paper PMC4719150.

# CC50 annotations
System: BEAS-2B cells
Conditions: read-out: CC50 (PrestoBlue cell viability); uninfected BEAS-2B cells; highest concentration assessed 10 μM; tox = less than 50% cell viability after 44 hours at ≤10 μM
property: CC50 (µM)

* O=[N+]([O-])c1ccc2c(c1)S(=O)(=O)C=C2 | 10
* Nc1nc2c(ncn2CCOCP(=O)(O)O)c(=O)[nH]1 | 10

* * *

Test system: recIAV WSN-NanoLuc
Experiment: microbe, parasite or virus in culture
Type: cell-based
Details: Influenza A virus, BEAS-2B, 40 h, read-out: % Inhibition (anti-IAV)
Numbered stars: 1 amine (or outer) side, 2 acyl side, 3 side chain; on linkers, the order of the positions; unused ones are H or OH. Bridge positions count the residues as written; N and C are the ends. Square brackets hold non-standard residues; d marks the D form. Peptide text beside a SMILES is read from it. I, II: the chains in the order shown. Actinocin(9to1) = Cc1c2oc3c(C)ccc(C(=O)[*:1])c3nc-2c(C(=O)[*:2])c(N)c1=O; NMeV = CN[C@H](C(=O)O)C(C)C; Sar = CNCC(=O)O
Give rule met when the value for inhibition at 5 µM is at least 90%. Give rule not met when it is less.

• CC[C@]1(O)C[C@H]2CN(CCc3c([nH]c4ccccc34)[C@@](C(=O)OC)(c3cc4c(cc3OC)N(C=O)[C@H]3[C@@](O)(C(=O)OC)[C@H](OC(C)=O)[C@]5(CC)C=CCN6CC[C@]43[C@@H]65)C2)C1 = rule not met
• COc1cc([C@@H]2c3cc4c(cc3[C@@H](O[C@@H]3O[C@@H]5CO[C@@H](C)O[C@H]5[C@H](O)[C@H]3O)[C@H]3COC(=O)[C@H]23)OCO4)cc(OC)c1O [Etoposide] = rule not met
• CC(=O)[C@]1(O)Cc2c(O)c3c(c(O)c2[C@@H](O[C@H]2C[C@H](N)[C@H](O)[C@H](C)O2)C1)C(=O)c1ccccc1C3=O = rule met
• Cc1c2oc3c(C)ccc(C(=O)N[C@@H]4C(=O)N[C@H](C(C)C)C(=O)N5CCC[C@H]5C(=O)N(C)CC(=O)N(C)[C@@H](C(C)C)C(=O)O[C@@H]4C)c3nc-2c(C(=O)N[C@@H]2C(=O)N[C@H](C(C)C)C(=O)N3CCC[C@H]3C(=O)N(C)CC(=O)N(C)[C@@H](C(C)C)C(=O)O[C@@H]2C)c(N)c1=O [Actinomycin D] (I: T[dV]P[Sar][NMeV] / II: T[dV]P[Sar][NMeV]; ester I:1-I:C, II:1-II:C; linker I:N-II:N via Actinocin(9to1)) = rule met
• CC(C)[C@]12O[C@H]1[C@@H]1O[C@]13[C@]1(O[C@H]1C[C@H]1C4=C(CC[C@@]13C)C(=O)OC4)[C@@H]2O [Triptolide] = rule met
• Cn1nnc2c(C(N)=O)ncn2c1=O [Temozolomide] = rule not met
• COc1cccc2c1C(=O)c1c(O)c3c(c(O)c1C2=O)C[C@@](O)(C(=O)CO)C[C@@H]3O[C@H]1C[C@H](N)[C@@H](O)[C@H](C)O1 [Epirubicin] = rule not met
• Cc1nc2ccc(CN(C)c3ccc(C(=O)N[C@@H](CCC(=O)O)C(=O)O)s3)cc2c(=O)[nH]1 = rule not met
• CN(Cc1cnc2nc(N)nc(N)c2n1)c1ccc(C(=O)N[C@@H](CCC(=O)O)C(=O)O)cc1 [Methotrexate] = rule met
• CN(CCOc1ccc(CC2SC(=O)NC2=O)cc1)c1ccccn1 (centres unmarked) = rule not met

* * *

Tested on: BEAS-2B cells
Conditions: uninfected BEAS-2B cells; highest concentration assessed 10 μM; tox = less than 50% cell viability after 44 hours at ≤10 μM
property: CC50 (PrestoBlue cell viability)

- CC(=O)[C@]1(O)Cc2c(O)c3c(c(O)c2[C@@H](O[C@H]2C[C@H](N)[C@H](O)[C@H](C)O2)C1)C(=O)c1ccccc1C3=O: tox^d
- CCN(CC)CCOc1ccc(Nc2ncc3cc(-c4c(Cl)cccc4Cl)c(=O)n(C)c3n2)cc1: tox^d
- Cn1c(=O)c(-c2c(Cl)cccc2Cl)cc2cnc(Nc3ccc(N4CCOCC4)cc3)nc21: tox^d
- C[n+]1cc2c3c(ccc2c2ccc4cc5c(cc4c21)OCO5)OCO3: tox^d
- CCN(CC)CCNC(=O)c1c(C)[nH]c(/C=C2\C(=O)Nc3ccc(F)cc32)c1C: tox^d
- CC(=O)OC[C@H]1O[C@@H]([S-])[C@H](OC(C)=O)[C@@H](OC(C)=O)[C@@H]1OC(C)=O.CCP(CC)CC.[Au+]: tox^d
- CNc1ccc2oc(C[C@H]3O[C@@]4(CC[C@H]3C)O[C@H]([C@H](C)C(=O)c3ccc[nH]3)[C@H](C)C[C@H]4C)nc2c1C(=O)O: tox^d
- CC[C@H]1CN2CCc3cc(OC)c(OC)cc3[C@@H]2C[C@@H]1C[C@H]1NCCc2cc(OC)c(OC)cc21: tox^d
- Nc1nc2c(c(=O)[nH]1)C[C@@H](CCc1ccc(C(=O)N[C@@H](CCC(=O)O)C(=O)O)cc1)CN2 [Lometrexol]: tox^d

* * *

Experiment: in vitro
Settings: human
property: CC50

• Nc1nc(N)c2nc(-c3ccccc3)c(N)nc2n1 = > 10 µM
• Nc1nc(N)c2nc(CNc3ccc(C(=O)N[C@@H](CCC(=O)O)C(=O)O)cc3)cnc2n1 = 10 µM
• c1cnc2c(c1)ccc1cccnc12 = 2.4 µM
• COc1cc2nc(N3CCCN(C)CC3)nc(NC3CCN(Cc4ccccc4)CC3)c2cc1OC = > 10 µM
• CC(C)[C@]12O[C@H]1[C@@H]1O[C@]13[C@]1(O[C@H]1C[C@H]1C4=C(CC[C@@]13C)C(=O)OC4)[C@@H]2O [Triptolide] = 0.3 µM
• NC(=O)c1ncn([C@@H]2O[C@H](CO)[C@@H](O)[C@H]2O)n1 = > 10 µM
• CC1=C(/C=C/C(C)=C/C=C/C(C)=C/C(=O)Nc2ccc(O)cc2)C(C)(C)CCC1 [Fenretinide] = > 10 µM
• CCOC(=O)C1=C(C)NC(C)=C(C(=O)OC)C1c1cccc([N+](=O)[O-])c1 (centres unmarked) = > 10 µM
• CC(=O)N[C@H]1[C@H]([C@H](O)[C@H](O)CO)OC(C(=O)O)=C[C@@H]1N=C(N)N = > 10 µM
• Nc1ccn([C@@H]2O[C@H](CO)[C@@H](O)C2(F)F)c(=O)n1 = > 10 µM
• Cc1c(-c2ccc(-c3ccccc3F)cc2)nc2ccc(F)cc2c1C(=O)O = > 10 µM

* * *

Tested on: BEAS-2B cells
Conditions: read-out: CC50 (PrestoBlue cell viability); uninfected BEAS-2B cells; highest concentration assessed 10 μM; tox = less than 50% cell viability after 44 hours at ≤10 μM
property: CC50

• CCCCCCCCCCCCCCCCCCOCC(COP(=O)([O-])OCC[N+](C)(C)C)OC (stereo not drawn) = > 10 µM
• Oc1ccc(/C=C/c2ccc(/C=C/c3ccc(O)cc3)c(Br)c2)cc1 = > 10 µM
• O=C1C(=Cc2ccccc2)C[C@@]2(O)[C@H]3Cc4ccc(O)c5c4[C@@]2(CCN3CC2CC2)[C@H]1O5 = > 10 µM
